Reference for the values: the METLIN SMRT retention time set (Domingo-Almenara et al. 2019)

assay-overview: gradient 5% acetonitrile 3 min, to 50% in 2 min, to 85% in 15 min, held 3 min, 100 µL/min
condition-notes: column: Zorbax Extend-C18 2.1 x 50 mm; eluents: water / acetonitrile, 0.1% formic acid
Record y whenever RP-LC retention time is at 900 s or higher; record n when lower.

INSERT INTO assay_data (molecule, class_name) VALUES
  ('Fc1cccc(Cn2cc(-c3noc(-c4cccc(F)c4)n3)nn2)c1', 'y'),
  ('CCN(CC)c1nc2cc(C(=O)N3CCN(c4ccccn4)CC3)ccc2c(=O)n1Cc1ccccc1', 'n'),
  ('Cc1cc(C(=O)Nc2nc(-c3ccccc3)c(-c3ccccc3)s2)no1', 'y'),
  ('CCc1nc(-c2csc(S(=O)(=O)N3CCC(C(=O)Nc4ccc(F)cc4Cl)CC3)c2)no1', 'y'),
  ('NC(=O)/C(=C\c1ccncc1)c1cccc2ccccc12', 'n'),
  ('CCn1c(=O)oc2cc(-c3noc(-c4cc(Cl)ccc4F)n3)ccc21', 'y'),
  ('Cn1cnc(S(=O)(=O)N2CCC(C(=O)NC3CCCc4ccccc43)CC2)c1 (centres undefined)', 'n'),
  ('Cc1ccc(Cn2nc3ccc(S(=O)(=O)N4CCCCC4)cn3c2=O)cc1', 'y');

====

assay-overview: gradient 5% acetonitrile 3 min, to 50% in 2 min, to 85% in 15 min, held 3 min, 100 µL/min
condition-notes: column: Zorbax Extend-C18 2.1 x 50 mm; eluents: water / acetonitrile, 0.1% formic acid
In this section we review reported RP-LC retention time values for a set of compounds.
measurement-name: RP-LC retention time (s)

INSERT INTO measurements (compound, result_number) VALUES
  ('COc1cc(NC(=O)CN2C(=O)COc3ccc(C(=O)N4CCCC4)cc32)cc(OC)c1', 718),
  ('O=C(NCC1Cn2cccc2C(=O)N1Cc1ccccc1)NC1CCCC1 (centres undefined)', 734),
  ('CC(C)c1cc(NCc2ccccn2)n2ncc(-c3ccccc3)c2n1', 1010),
  ('Nc1ccc2c3c(cccc13)C(=O)NC2=O', 657),
  ('CCSc1ccc(Cc2nnc(NC(=O)c3cccs3)o2)cc1', 807),
  ('CCOC(=O)c1c(C)[nH]c(C(=O)N2CCCC(C(=O)NCCCN3CCOCC3)C2)c1C (centres undefined)', 593),
  ('O=C(NCc1nc(-c2ccc(-c3csc(C4CC4)n3)cc2)no1)c1ccco1', 830),
  ('CN1CCN(C(=O)C2CCCN(c3ncnc4c3nc3n4CCCCC3)C2)CC1 (centres undefined)', 570),
  ('O=C(Nc1nc(-c2cc([N+](=O)[O-])cs2)cs1)C1=COCCO1', 829),
  ('CN1C[C@H](C(=O)N[C@]2(C)O[C@@]3(O)[C@@H]4CCCN4C(=O)[C@H](Cc4ccccc4)N3C2=O)CC2c3cccc4[nH]cc(c34)C[C@H]21 (some centres undefined)', 683),
  ('Cn1nc(C(=O)NCc2ccc3c(c2)OCO3)c2c1CCN(C(=O)c1ccco1)C2', 725),
  ('O=C(c1cccs1)N1CCC2(CC1)N=C(c1ccc(Cl)cc1)NO2', 844),
  ('O=c1c(Nc2ccc(F)c(Cl)c2)nc2ccncc2n1Cc1ccccc1', 831),
  ('O=C(NCc1ccco1)C1CCCN(c2ccc(=O)n(-c3cccc(Cl)c3)n2)C1 (centres undefined)', 808),
  ('O=C(Cc1ccc(Br)cc1)NCC(=O)N1CCCc2ccccc21', 876),
  ('O=C(NC1CCCC1)c1nnc(-c2ccc(S(=O)(=O)N3CCCC3)cc2)o1', 855),
  ('CCOC(=O)c1noc2ncnc(N3CCCc4ccccc43)c12', 988),
  ('Cc1sc(NC(=O)c2cccs2)nc1-c1ccccc1', 1070),
  ('O=C(Nc1cc(-c2ccccn2)no1)c1ccccc1F', 774),
  ('Cc1ccc(CN2CC3(CCCCC3)CC2COc2ccncc2)nc1 (centres undefined)', 615),
  ('CCOC(=O)c1c(S(=O)(=O)N2CCC(C(=O)Nc3cccc(OC)c3)CC2)c(C)n(CC)c1C', 891),
  ('Cc1cccc(-c2nc3cnccn3c2NCCC(=O)N2CCCC2)c1', 650),
  ('Cc1ccnc(N2CCCC(C(=O)NCC3CCN(Cc4ccccc4C)CC3)C2)n1 (centres undefined)', 596),
  ('COCCN1C(=O)c2ccccc2C(C(=O)NCCN2CCCCC2C)C1c1cccs1 (centres undefined)', 634),
  ('CCCNC(=O)CCc1nc2ccccc2n(CC(=O)Nc2cccc(OC)c2)c1=O', 757),
  ('CCOC(=O)C1=C(CN(C)Cc2ccccc2)NC(=O)NC1c1ccc(OC)cc1 (centres undefined)', 578),
  ('CCC(=O)N1CCc2c(sc3ncnc(N)c23)C1', 575),
  ('CCC1Oc2ccc(S(=O)(=O)N3CCC(C(=O)Nc4ccc(C)c(F)c4)CC3)cc2NC1=O (centres undefined)', 892),
  ('CCOc1ccccc1-c1nc(Cc2noc(-c3ccncc3)n2)c(C)o1', 918),
  ('Cc1noc(C)c1S(=O)(=O)N1CCC2(CCC(CN(C)Cc3ccncc3)O2)CC1 (centres undefined)', 604),
  ('CCn1c(=O)c2ccccc2n(Cc2nc(-c3ccc(Cl)c(F)c3)no2)c1=O', 1140),
  ('CN1C(=O)c2cc(S(=O)(=O)Nc3ccc(F)c(Cl)c3)ccc2Oc2cccnc21', 962),
  ('COc1ccc(C)cc1NC(=O)C1CCc2nc(N3CCOCC3)ncc2C1 (centres undefined)', 832),
  ('CNC(=O)c1cc(C)nc2ccc(Cl)cc12', 607),
  ('COc1ccccc1-c1nc2nccc(-c3ccccc3)n2n1', 862),
  ('CCOC(=O)C1CCCN(C(=O)CCC2NC(=O)c3ccccc3NC2=O)C1 (centres undefined)', 621),
  ('Cc1cccc2nnc(N3CCC(C(=O)Nc4ccccc4F)CC3)n12', 677),
  ('COCCn1c(C)cc(O)c(C(c2ccc(OC)cc2)N2CCC(C)CC2)c1=O (centres undefined)', 845),
  ('CC1=C(c2ccc(F)cc2)S(=O)(=O)N=C1N1CCCN(C(=O)C2CC2)CC1', 734);
